# Test system: panel of 55 breast cancer cell lines
# Test Summary: Cell growth inhibition assay (Cell Titer Glo, 72 h, 9 doses; GI50, TGI, LC50)
# Assay type: cell-based, human
# Recorded Conditions: BT549 cell line; censored GI50 values; value is the negative log10 of mol/L
Each entry below lists one item and its recorded GI50 value.

Compound	GI50
N.N.O=C([O-])C1(C(=O)[O-])CCC1.[Pt+2]	4.58
COc1cc2ncnc(Nc3cccc(Cl)c3)c2cc1OC	4.41
CNC(=O)c1c(F)cccc1Nc1nc(Nc2cc3c(cc2OC)CCN3C(=O)CN(C)C)nc2[nH]ccc12 [GSK1838705A]	5.21
CC(=O)Nc1cccc(-n2c(=O)n(C3CC3)c(=O)c3c(Nc4ccc(I)cc4F)n(C)c(=O)c(C)c32)c1.C[S+](C)[O-] [GSK1120212B]	5.17
CC(/C=C/C(=O)NO)=C\[C@@H](C)C(=O)c1ccc(N(C)C)cc1	5.13
CCNCCCCNCCCCNCCCCNCCCCNCC=CCNCCCCNCCCCNCCCCNCCCCNCC.Cl.Cl.Cl.Cl.Cl.Cl.Cl.Cl.Cl.Cl (stereo in doubt)	6.65
C=CCNC1=C2C[C@@H](C)C[C@H](OC)[C@H](O)[C@@H](C)/C=C(\C)[C@H](OC(N)=O)[C@@H](OC)/C=C\C=C(/C)C(=O)NC(=CC1=O)C2=O	7.47
